TESTED_ON: recombinant hMAO B (Homo sapiens)
Sequence (P27338 1-520): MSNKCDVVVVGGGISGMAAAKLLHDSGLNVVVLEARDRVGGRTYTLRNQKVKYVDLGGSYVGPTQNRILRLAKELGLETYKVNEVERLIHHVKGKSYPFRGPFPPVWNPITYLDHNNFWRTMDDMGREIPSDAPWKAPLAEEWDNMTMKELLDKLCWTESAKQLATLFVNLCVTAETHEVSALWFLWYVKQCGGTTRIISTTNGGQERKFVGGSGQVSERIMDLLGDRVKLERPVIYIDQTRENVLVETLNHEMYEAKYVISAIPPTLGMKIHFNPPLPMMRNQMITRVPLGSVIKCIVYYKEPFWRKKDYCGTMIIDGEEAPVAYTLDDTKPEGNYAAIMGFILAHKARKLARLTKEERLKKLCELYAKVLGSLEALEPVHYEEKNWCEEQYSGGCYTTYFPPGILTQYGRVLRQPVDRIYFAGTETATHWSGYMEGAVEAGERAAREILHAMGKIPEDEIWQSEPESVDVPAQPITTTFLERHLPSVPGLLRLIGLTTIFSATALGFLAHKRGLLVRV
MEASUREMENT_PROTOCOL: MAO B inhibition, fluorometric method
Assay type: biochemical
CONDITION_DESCRIPTION: selective for MAO-B (over MAO A)
OUTCOME_MEASURE: Selectivity and indexes

COMPOUND | TESTED_ON | RESULT
COc1ccc(C(=O)C=Cc2ccc(NC(=O)CN3CCN(C=O)CC3)cc2)cc1OC [Compound 4f] | recombinant hMAO B (Homo sapiens) | MAO-B/>1000
COc1ccc(C(=O)C=Cc2ccc(NC(=O)CN3CCN(S(C)(=O)=O)CC3)cc2)cc1OC [Compound 4m] | recombinant hMAO B (Homo sapiens) | MAO-B/>10
COc1ccc(C(=O)C=Cc2ccc(NC(=O)CN3CCN(CCN(C)C)CC3)cc2)cc1OC [Compound 4j] | recombinant hMAO B (Homo sapiens) | MAO-B/>10
COc1ccc(C(=O)C=Cc2ccc(NC(=O)CN3CCN(C)CC3)cc2)cc1OC [Compound 4a] | recombinant hMAO B (Homo sapiens) | MAO-B/>1000
COc1ccc(C(=O)C=Cc2ccc(NC(=O)CN3CCN(CCCO)CC3)cc2)cc1OC [Compound 4i] | recombinant hMAO B (Homo sapiens) | MAO-B/>10
